Reference for the values: patent US4175081A

Recorded pest or weed control at 8966.8 g/ha values for a group of compounds are listed next.
# Tested on: Bean (BN)
# method.summary: Pre-emergence herbicide test
# Assay type: in vivo, Phaseolus vulgaris var. Black Valentine
# condition.description: Phaseolus vulgaris, 336 h, 8 lb/acre, two weeks after treatment
# Experimental: Bean (BN)--Phaseolus vulgaris var. Black Valentine All crop and weed species were planted individually in 3' plastic pots containing potting soil. Four seeds each of corn, cotton, and snapbeans were seeded to a depth equal to the diameter of the seed. All other species were surface seeded and sprinkled with screened soil in an amount sufficient to cover the seed. Immediately after planting, all pots were watered by sub-irrigation in greenhouse trays. […]
Value and unit, in that order.

(Q) Query the reported pest or weed control at 8966.8 g/ha for Bean (BN); item: CCCSc1nnc(N(C)C(=O)NC)s1 [Example 69]
(A) 100%

(Q) # returns recorded pest or weed control at 8966.8 g/ha (system: Bean (BN)) for CCCNC(=O)Nc1nnc(SC)s1 [Example 29]
(A) 80%

(Q) What is its pest or weed control at 8966.8 g/ha for Bean (BN)? Entry: CNC(=O)Nc1nnc(SC)s1 [Example 26]
(A) 30%

(Q) # returns recorded pest or weed control at 8966.8 g/ha (system: Bean (BN)) for O=C(Nc1ccc(Cl)c(Cl)c1)Nc1nnc(C(F)(F)F)s1 [Example 16]
(A) 80%
